Emax values for the compounds below.
- system_name: Peroxisome proliferator-activated receptor delta (Homo sapiens) (UniProt Q03181)
- Sequence (whole entry): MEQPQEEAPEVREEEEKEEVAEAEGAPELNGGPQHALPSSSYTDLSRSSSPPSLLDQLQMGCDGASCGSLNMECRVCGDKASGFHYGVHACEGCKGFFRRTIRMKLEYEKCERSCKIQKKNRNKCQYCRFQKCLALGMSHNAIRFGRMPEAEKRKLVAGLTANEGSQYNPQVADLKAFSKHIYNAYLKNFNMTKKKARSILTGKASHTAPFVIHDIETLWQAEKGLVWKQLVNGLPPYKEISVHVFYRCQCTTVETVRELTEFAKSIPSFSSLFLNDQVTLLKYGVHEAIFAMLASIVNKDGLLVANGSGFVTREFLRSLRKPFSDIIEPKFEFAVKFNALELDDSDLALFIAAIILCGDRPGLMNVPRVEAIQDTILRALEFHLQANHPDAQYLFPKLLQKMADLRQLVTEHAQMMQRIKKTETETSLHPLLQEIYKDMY
- experiment_description: Transactivation of human GAL4-fused PPARdelta LBD expressed in African green monkey COS7 cells co-expressing 5Gal4 pGL3 TK Luc after overnight incubation by luciferase reporter gene assay relative to GW501516
- Type: cell-based

input_smiles | Emax
O=C(O)CCc1cc2cc(Cl)ccc2n1S(=O)(=O)c1ccccc1 | 56%
O=C(O)CCCCc1cc2cc(Cl)ccc2n1S(=O)(=O)c1ccccc1 | < 20%
O=C(O)CCCc1cc2cc(C(F)(F)F)ccc2n1S(=O)(=O)c1cccc(Cl)c1 | 21%
O=C(O)CCCc1cc2cc(Cl)ccc2n1S(=O)(=O)c1cccc2ccccc12 | < 20%
CC(C)(CCc1cc2cc(Cl)ccc2n1S(=O)(=O)c1ccccc1)C(=O)O | < 20%
Nc1nc2ccc(S(=O)(=O)n3c(CCCC(=O)O)cc4cc(Cl)ccc43)cc2s1 | 82%
O=C(O)CCCc1cc2cc(C(F)(F)F)ccc2n1S(=O)(=O)c1ccc(OC(F)(F)F)cc1 | 28%
O=C(O)CCCc1cc2cc(Cl)ccc2n1S(=O)(=O)c1ccc2ccccc2c1 | < 20%
COc1cccc(S(=O)(=O)n2c(CCCC(=O)O)cc3cc(C(F)(F)F)ccc32)c1 | 28%
O=C(O)CCCc1cc2cc(C(F)(F)F)ccc2n1S(=O)(=O)c1ccccc1 | 49%
COc1ccccc1S(=O)(=O)n1c(CCCC(=O)O)cc2cc(C(F)(F)F)ccc21 | < 20%
Cc1nc2cc(S(=O)(=O)n3c(CCCC(=O)O)cc4cc(Cl)ccc43)ccc2s1 | 20%
O=C(O)CCCc1cc2cc(Cl)ccc2n1S(=O)(=O)c1ccc2ncsc2c1 | 105%
COc1ccc(S(=O)(=O)n2c(CCCC(=O)O)cc3cc(Cl)ccc32)cc1 | < 20%
O=C(O)CCCc1cc2cc(C(F)(F)F)ccc2n1S(=O)(=O)c1cccc(OC(F)(F)F)c1 | 23%
Cc1ccc2c(c1)cc(CCCC(=O)O)n2S(=O)(=O)c1ccccc1 | 45%
COc1ccc(S(=O)(=O)n2c(CCCC(=O)O)cc3cc(C(F)(F)F)ccc32)cc1 | 24%
O=C(O)CCCc1cc2cc(Cl)ccc2n1S(=O)(=O)c1ccccc1 | 46%
COc1cccc(S(=O)(=O)n2c(CCCC(=O)O)cc3cc(Cl)ccc32)c1 | 43%
Cc1nc2ccc(S(=O)(=O)n3c(CCCC(=O)O)cc4cc(Cl)ccc43)cc2s1 | 27%
O=C(O)CCCc1cc2cc(C(F)(F)F)ccc2n1S(=O)(=O)c1ccc2ncsc2c1 | 79%
O=C(O)CCCc1cc2cc(Cl)ccc2n1S(=O)(=O)c1ccc2nc[nH]c2c1 | 20%

* * *

- experiment_description: Apparent permeability from apical to basolateral side in human Caco2 cells at 10 uM after 2 hrs by LC-MS/MS analysis
- Format: ADME, cell-based, Caco-2
- condition_description: caco-2, 2 h, 10 µM
observed_property: Papp (×10⁻⁶ cm/s)

input_smiles | unit_text | recorded_result
O=C(O)CCCc1cc2cc(Cl)ccc2n1S(=O)(=O)c1ccc2ncsc2c1 | ×10⁻⁶ cm/s | 24

* * *

- system_name: Peroxisome proliferator-activated receptor gamma (Homo sapiens, UniProt P37231)
- Sequence (P37231 whole entry, the tested form may be a part): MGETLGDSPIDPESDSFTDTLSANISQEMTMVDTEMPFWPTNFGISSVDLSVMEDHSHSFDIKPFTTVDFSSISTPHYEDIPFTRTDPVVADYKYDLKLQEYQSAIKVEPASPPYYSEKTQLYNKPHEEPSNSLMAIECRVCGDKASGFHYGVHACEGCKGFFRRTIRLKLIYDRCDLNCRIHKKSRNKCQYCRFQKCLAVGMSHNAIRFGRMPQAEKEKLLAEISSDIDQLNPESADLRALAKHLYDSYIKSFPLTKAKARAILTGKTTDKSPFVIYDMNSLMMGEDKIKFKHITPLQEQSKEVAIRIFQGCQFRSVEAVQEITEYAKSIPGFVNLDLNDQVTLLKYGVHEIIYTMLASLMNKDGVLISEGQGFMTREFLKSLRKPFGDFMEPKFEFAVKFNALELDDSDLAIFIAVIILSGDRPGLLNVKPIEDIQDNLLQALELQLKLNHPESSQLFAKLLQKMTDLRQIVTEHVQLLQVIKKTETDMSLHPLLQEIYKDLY
- experiment_description: Transactivation of human GAL4-fused PPARgamma LBD expressed in African green monkey COS7 cells co-expressing 5Gal4 pGL3 TK Luc after overnight incubation by luciferase reporter gene assay
- Format: cell-based
pEC50: −log10 of the molar value.

input_smiles | lt_gt_eq | pEC50
CC(C)(CCc1cc2cc(Cl)ccc2n1S(=O)(=O)c1ccccc1)C(=O)O | = | 6.04
COc1ccc(S(=O)(=O)n2c(CCCC(=O)O)cc3cc(Cl)ccc32)cc1 | = | 7.14
O=C(O)CCCc1cc2cc(Cl)ccc2n1S(=O)(=O)c1ccc2c(c1)OCO2 | = | 7.15
O=C(O)CCCc1cc2cc(C(F)(F)F)ccc2n1S(=O)(=O)c1ccc2ncsc2c1 | = | 6.83
O=C(O)CCCc1cc2cc(Cl)ccc2n1S(=O)(=O)c1ccc2nc[nH]c2c1 | < | 5.30
O=C(O)CCCc1cc2cc(C(F)(F)F)ccc2n1S(=O)(=O)c1ccc(Cl)cc1 | = | 6.20
Cc1ccc(S(=O)(=O)n2c(CCCC(=O)O)cc3cc(Cl)ccc32)cc1 | = | 6.56
O=C(O)CCCc1cc2cc(C(F)(F)F)ccc2n1S(=O)(=O)c1cccc(Cl)c1 | = | 6.59
Cc1nc2cc(S(=O)(=O)n3c(CCCC(=O)O)cc4cc(Cl)ccc43)ccc2s1 | = | 6.76
O=C(O)CCCc1cc2cc(Cl)ccc2n1S(=O)(=O)c1ccccc1 | = | 6.55

* * *

- system_name: Peroxisome proliferator-activated receptor gamma (Homo sapiens) (UniProt P37231)
- Sequence (P37231 whole entry, the tested form may be a part): as above
- experiment_description: Transactivation of human GAL4-fused PPARgamma LBD expressed in African green monkey COS7 cells co-expressing 5Gal4 pGL3 TK Luc after overnight incubation by luciferase reporter gene assay relative to rosiglitazone
- Type: cell-based
Emax values for the compounds below.
observed_property: Emax (%)

input_smiles | lt_gt_eq | recorded_result
O=C(O)CCCc1cc2cc(Cl)ccc2n1S(=O)(=O)c1ccc2nsnc2c1 | = | 67
O=C(O)CCCc1cc2cc(Cl)ccc2n1S(=O)(=O)c1ccc2nc[nH]c2c1 | = | 42
COc1ccc2c(c1)cc(CCCC(=O)O)n2S(=O)(=O)c1ccccc1 | < | 20
O=C(O)CCCc1cc2cc(Cl)ccc2n1S(=O)(=O)c1ccccc1 | = | 46
O=C(O)CCCc1cc2cc(Cl)ccc2n1S(=O)(=O)c1ccc2c(c1)OCO2 | = | 45
CC(C)(CCc1cc2cc(Cl)ccc2n1S(=O)(=O)c1ccccc1)C(=O)O | = | 32
Cc1cccc(S(=O)(=O)n2c(CCCC(=O)O)cc3cc(Cl)ccc32)c1 | = | 46
COc1ccc(S(=O)(=O)n2c(CCCC(=O)O)cc3cc(Cl)ccc32)cc1 | = | 25
O=C(O)CCCc1cc2cc(C(F)(F)F)ccc2n1S(=O)(=O)c1ccccc1Cl | = | 45
O=C(O)CCCc1cc2cc(C(F)(F)F)ccc2n1S(=O)(=O)c1ccccc1 | = | 50
O=C(O)CCCc1cc2cc(C(F)(F)F)ccc2n1S(=O)(=O)c1ccc(OC(F)(F)F)cc1 | = | 32
O=C(O)CCc1cc2cc(Cl)ccc2n1S(=O)(=O)c1ccccc1 | = | 43

* * *

- system_name: Peroxisome proliferator-activated receptor gamma (Homo sapiens, UniProt P37231)

molecule | EC50 (µM)
O=C(O)CCCc1cc2cc(Cl)ccc2n1S(=O)(=O)c1ccc2ncsc2c1 [LANIFIBRANOR] | 4.11

* * *

Papp A→B at 2 h, 10 µM values for the compounds below.
- experiment_description: Apparent permeability from apical to basolateral side in human Caco2 cells at 10 uM after 2 hrs by LC-MS/MS analysis
- Format: ADME, cell-based, Caco-2
- condition_description: Caco-2

compound | Papp A→B at 2 h, 10 µM, ×10⁻⁶ cm/s
CC(=O)CC(c1ccccc1)c1c(O)c2ccccc2oc1=O (configuration not stated) | 39.8
O=C(O)CCc1cc2cc(Cl)ccc2n1S(=O)(=O)c1ccccc1 | 61

* * *

Papp values for the compounds below.
- experiment_description: Apparent permeability from basolateral to apical side in human Caco2 cells at 10 uM after 2 hrs by LC-MS/MS analysis
- Type: ADME, cell-based, Caco-2
- condition_description: caco-2, 2 h, 10 µM
observed_property: Papp (×10⁻⁶ cm/s)

compound | recorded_result
O=C(O)CCCc1cc2cc(Cl)ccc2n1S(=O)(=O)c1ccc2ncsc2c1 [LANIFIBRANOR] | 0.2
CC(=O)CC(c1ccccc1)c1c(O)c2ccccc2oc1=O (configuration not stated) [WARFARIN] | 0.7

* * *

- experiment_description: Efflux ratio of apparent permeability in human Caco2 cells at 10 uM after 2 hrs by LC-MS/MS analysis
- Assay type: ADME, cell-based, Caco-2
- condition_description: Caco-2
efflux ratio at 2 h, 10 µM values for the compounds below.
observed_property: efflux ratio at 2 h, 10 µM

compound | recorded_result
O=C(O)CCc1cc2cc(Cl)ccc2n1S(=O)(=O)c1ccccc1 | 0.2
CC(=O)CC(c1ccccc1)c1c(O)c2ccccc2oc1=O (configuration not stated) [WARFARIN] | 0.02
